target: T1, SARS-CoV2 Spike ecto foldon Trimer expressed with a C-terminal myc-myc-hexahistidine (SARS-CoV-2, UniProt P0DTC2 14-1213); assay: SPR Biacore, mAb captured by anti-hFc, 25C
T1 construct: extracellular domain
Would you mind sorting the entries by Kd according to these classes? lower range: < 0.05 nM; middle range: ≥ 0.05 nM and < 0.09 nM; upper range: ≥ 0.09 nM

Illustrative cases are given below, each with its answer.
mAb14230 (antibody, V domains shown) VH: EVQLVESGGGLIQPGRSLRLSCAASGFTFDDYAMHWVRQAPGKGLEWVSGISWNSVSIDYADSVKGRFTISRDNAKNSLYLQMTSLTVEDTALYYCAKAFGYETLTGSDYFAYWGPGTLVTVSS VL: EIVLTQSPGTLSLSPGERATLSCRASQTVISTYLAWYQQKPGQSPRLLIYGASSRATGIPDRFSGSGSGTDFTLTISRLEPEDFAVYYCQQYGSSPQLTFGGGTKVEIKR = lower range
mAb15157 (antibody, V domains shown) VH: EVQLVESGGALVQPGGSLRLSCAASGFPFTIYAMTWVRQAPGKGLEWVSVITGSGDSTYYADSVKGRFTISRDNSKNTLYLQMNSLRAEDTAVYYCVKTGEGFFYYYYGMDVWGQGTTVTVSS VL: QSVLTQPPSVSAAPGQKVTISCSGSSSNIGNSYISWYQQLPGTAPKLLIYVNNKRPSGIPDRFSGSKSGTSATLGITGLQTGDEADYYCGTWDSSLSAGVFGSGTKVTVLG = upper range

Data request: Categorize the following entry: mAb14283 (antibody, V domains shown) VH: QVQLQESGPGLVKPSGTLSLTCDVSGGSISSNNWWSWVRQRPGKGLQWIGEIYHNENTNYNPSLKSRVIMSIDKSKNQFSLKLTSVTAADTAVYYCARGDVLDWFDPWGQGTLVTVSS VL: QSALTQPASVSGSPGQSTTISCTGTSSDVGGYNYVSWYQQYPGKAPKLMIYDVTNRPSGVSHRFSGSKSGNTASLTISGLQAEDEADYYCSSYTSSSTVIFGGGTKLTVLG
Data returned: middle range

Data request: Please report the category associated with mAb13458 (antibody, V domains shown) VH: EVQLVESGGGLVQPGRSLRLSCAASGFTFDDYAMHWVRQAPGKGLEWVSGISWNSGSIGYADSVKGRFTISRDNAKNSLYLQMNSLRAEDTALYYCAKDIGITTPYWGQGTLVTVSS VL: AIQMTQSPSSLSASVGDRVTITCRASQDIRNDLGWYQQKPGKAPKLLIYSASSLQTGVPSRFSGSGSGTDFTLTISSLHPEDFATYYCLQDYWYTWTFGQGTKVEIKR , nothing else.
Data returned: lower range

Data request: Record mAb14235 (antibody, V domains shown) VH: QITLKESGPTLVKPTQTLTLTCTFSGFSLNTGGVGVGWIRQPPGNALEWLALIYWDDDKRYNPSLKTRLTISKDTSKNQVVLTMTNMDPVDTATYFCAHLTIAVIVDFWGQGTLVTVSS VL: QSALTQPASVSGSPGQSITISCTATSSDVGTYNYVSWFQHHPGKAPKLMIYEVTNRPSGVSNRFSGSKSGNTASLTISGLQAEDEADYYCSSYTTTSIVFGGGTKLTVLG — which class?
Data returned: lower range

Data request: Band of mAb13457 (antibody, V domains shown) VH: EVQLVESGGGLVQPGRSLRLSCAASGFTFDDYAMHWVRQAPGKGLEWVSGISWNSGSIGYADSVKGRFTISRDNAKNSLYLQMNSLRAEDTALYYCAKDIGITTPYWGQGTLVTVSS VL: AIQMTQSPSSLSASVGDRVTITCRASQDIRNDLGWYQQKPGKAPKLLIYSASSLQTGVPSRFSGSGSGTDFTLTISSLHPEDFATYYCLQDYDYTWTFGQGTKVEIKR ?
Data returned: middle range

Data request: Any idea which band mAb15160 (antibody, V domains shown) VH: EVQLVESGGGLVQPGGSLRLSCSASGFTFSRYAMYWVRQAPGKGLEYVSAISSDGGSTYDADSVKGRFTISRANSKNTLYLQMSSLRAEDTAVYYCVKGLRELLYYYYGMDVWGQGTTVTVSS VL: DIQMTQSPSSLSASVGDRVTITCRAGQSISSFLNWYQQKPGKAPKLLIYAASSLQSGVPSRFSGSGSGTDFTLTISSLQPEDFATYYCQQSYITPFTFGPGTKVDIKR is in?
Data returned: upper range

Data request: Determine which band this binder sits in: mAb15164 (antibody, V domains shown) VH: EVQLVESGGGLVQPGGSLRLSCAASGFAVSSNYMTWVRQAPGKGLEWVATIYSGDSTYYADSVKGRFTISRHNSKNTLSLQMNSLRADDTAIYYCARLSGVLSGTYNGAFDIWGQGTMVTVSS VL: QSALTQPASVSGSPGQSITISCTGTSSDFGNYNIVSWYQQHPGQAPKVMIYEGNKRPSGVSNRFSGSKSGHTASLTISGLQAEDEADYYCSSYAGSSTWVFGGGTKLTVLG
Data returned: middle range

Data request: Category lookup for the binder mAb15159 (antibody, V domains shown) VH: EVQLVESGGGLVQPGGSLRLSCAASGITVSSNYMTWVRQAPGKGLEWVSLIYSGGSTFYADSVRGRFTISRDNSKNTLYLQMNSLRAEDTAVYYCARDLVVYGMDVWGQGTTVTVSS VL: DIQLTQSPSSLSASVGDRVTITCRASQGISSYLAWYQQKPGKAPKLLIYAASTLQSGVPSRFSGSGSGTDFTLTISSLQPEDFATYYCQHLNSDPHTFGQGTKLEIKR
Data returned: upper range

Data request: For this binder, which bin applies? mAb14285 (antibody, V domains shown) VH: QVQLVQSGAEVKKPGASVKVSCKASGYTFTGYFIHWVRQAPGQGLEWMGWISPISGGTNYAQKFQGRVTVTRDTSITTAYMELSRLTSDDTAVYHCAREGGTWKGDFDYWGQGTLVTVSS VL: QSALTQPASVSGSPGQSITISCTGTSSDVESYNLVSWYQQHPGKAPKLMIYEGSKRPSGVSNRFSGSKSGNTASLTISGLQAEDEADYYCSSYAGSSTWVFGGGTKLTVLG
Data returned: lower range
